These entries and their values trace back to patent US6995185B2.

Procedure Summary: log P determination by HPLC on reversed-phase column (C 18), EEC directive 79/831 Annex V.A8
Type: physicochemical
Assay Conditions: reversed-phase HPLC column (C 18), pH 2.3, pH 2.3 (marked a), 0.1% aqueous phosphoric acid/acetonitrile, 43° C.
Tick T if chromatographic logP is 5 or greater. Tick F if chromatographic logP is less than 5.

// known answers, use as guide
>  <Molecule>
O=C(OCCCN1CCCC1=O)[C@H]1CC(c2c(F)cccc2F)=NC1c1ccc(-c2ccc(OC(F)(F)F)cc2)cc1 (some centres unmarked) [Example 45]

>  <Assigned Class>
F

$$$$
>  <Molecule>
O=C(NCC1CCCCC1)[C@H]1CC(c2c(F)cccc2F)=NC1c1ccc(-c2ccc(OC(F)(F)F)cc2)cc1 (some centres unmarked) [Example 82]

>  <Assigned Class>
F

$$$$
>  <Molecule>
CCCCCN(CCCCC)C(=O)[C@H]1CC(c2c(F)cccc2F)=NC1c1ccc(-c2ccc(OC(F)(F)F)cc2)cc1 (some centres unmarked) [Example 75]

>  <Assigned Class>
T

$$$$

(Q) Does CNC(=O)[C@H]1CC(c2c(F)cccc2F)=NC1c1ccc(-c2ccc(OC(F)(F)F)cc2)cc1 (some centres unmarked) [Example 58] have a reported chromatographic logP of at least 5?
(A) F

(Q) API: above_or_equal(metric=chromatographic logP, cutoff=5) for item N#CCOC(=O)[C@H]1CC(c2c(F)cccc2F)=NC1c1ccc(-c2ccc(OC(F)(F)F)cc2)cc1 (some centres unmarked) [Example 29]
(A) F

(Q) Form field: chromatographic logP at least 5? Entry: O=C(OC1CCc2ccccc21)[C@H]1CC(c2c(F)cccc2F)=NC1c1ccc(-c2ccc(OC(F)(F)F)cc2)cc1 (some centres unmarked) [Example 52]
(A) T

====

Procedure Summary: log P determination by HPLC on reversed-phase column (C 18), EEC directive 79/831 Annex V.A8
Type: physicochemical
Assay Conditions: reversed-phase HPLC column (C 18), pH 2.3, pH 2.3 (marked a), 0.1% aqueous phosphoric acid/acetonitrile, 43° C.
Label True when chromatographic logP >= 5; otherwise False.

Here are 4 compounds together with their reported answers.
>  <Compound>
O=C(OCc1ccccc1Cl)[C@H]1CC(c2c(F)cccc2F)=NC1c1ccc(-c2ccc(OC(F)(F)F)cc2)cc1 (stereo partly shown)

>  <Assigned Class>
True

$$$$
>  <Compound>
COc1ccccc1CNC(=O)[C@H]1CC(c2c(F)cccc2F)=NC1c1ccc(-c2ccc(OC(F)(F)F)cc2)cc1 (stereo partly shown)

>  <Assigned Class>
False

$$$$
>  <Compound>
O=C(NCC1CCCO1)[C@H]1CC(c2c(F)cccc2F)=NC1c1ccc(-c2ccc(OC(F)(F)F)cc2)cc1 (stereo partly shown)

>  <Assigned Class>
False

$$$$
>  <Compound>
C=CCCCOC(=O)[C@H]1CC(c2c(F)cccc2F)=NC1c1ccc(-c2ccc(OC(F)(F)F)cc2)cc1 (stereo partly shown)

>  <Assigned Class>
True

$$$$

(Q) Item CCC(CC)OC(=O)[C@H]1CC(c2c(F)cccc2F)=NC1c1ccc(-c2ccc(OC(F)(F)F)cc2)cc1 (stereo partly shown) with chromatographic logP of 5 or above?
(A) True

(Q) Decide: chromatographic logP of CCCCOC(=O)[C@H]1CC(c2c(F)cccc2F)=NC1c1ccc(-c2ccc(OC(F)(F)F)cc2)cc1 (stereo partly shown) >= 5?
(A) True

(Q) Quick check: does CCCNC(=O)[C@H]1CC(c2c(F)cccc2F)=NC1c1ccc(-c2ccc(OC(F)(F)F)cc2)cc1 (stereo partly shown) have chromatographic logP greater than or equal to 5?
(A) False

(Q) hey, is chromatographic logP for this one >= 5? CC(C)[C@H](C)OC(=O)[C@H]1CC(c2c(F)cccc2F)=NC1c1ccc(-c2ccc(OC(F)(F)F)cc2)cc1 (stereo partly shown)
(A) True

(Q) State whether the measured chromatographic logP reaches 5, counting equality as reaching it, for COCCNC(=O)[C@H]1CC(c2c(F)cccc2F)=NC1c1ccc(-c2ccc(OC(F)(F)F)cc2)cc1 (stereo partly shown)
(A) False

(Q) Does the reported chromatographic logP for O=C(OCc1ccccc1)[C@H]1CC(c2c(F)cccc2F)=NC1c1ccc(-c2ccc(OC(F)(F)F)cc2)cc1 (stereo partly shown) fall at or above the 5 mark?
(A) True

(Q) Decide: is the reported value of chromatographic logP for CCNC(=O)[C@H]1CC(c2c(F)cccc2F)=NC1c1ccc(-c2ccc(OC(F)(F)F)cc2)cc1 (stereo partly shown) equal to or greater than 5?
(A) False

(Q) Has Cc1cccc(CNC(=O)[C@H]2CC(c3c(F)cccc3F)=NC2c2ccc(-c3ccc(OC(F)(F)F)cc3)cc2)c1 (stereo partly shown) a recorded chromatographic logP greater than or equal to 5?
(A) False

(Q) chromatographic logP >= 5 for CN(C)C(=O)[C@H]1CC(c2c(F)cccc2F)=NC1c1ccc(-c2ccc(OC(F)(F)F)cc2)cc1 (stereo partly shown) ?
(A) False

(Q) Record CCCCCOC(=O)[C@H]1CC(c2c(F)cccc2F)=NC1c1ccc(-c2ccc(OC(F)(F)F)cc2)cc1 (stereo partly shown) ; criterion: chromatographic logP no lower than 5. Met?
(A) True

(Q) Confirm if chromatographic logP reported for the compound CCN(C)C(=O)[C@H]1CC(c2c(F)cccc2F)=NC1c1ccc(-c2ccc(OC(F)(F)F)cc2)cc1 (stereo partly shown) is 5 or above.
(A) False
